Each record here notes measured TGI.
Test system: HCT-15 colon
Experiment: NCI tumour cell line growth inhibition, 48 h

Use the examples below as a reference point.
Molecule | Recorded Result
NC(=O)N/N=C/c1ccccc1O | > 100 µM
COc1ccc2oc3c(ccc[n+]3C)c(=O)c2c1 | > 100 µM
Cc1cc(C)nc(NS(=O)(=O)c2ccc(NC(=O)c3ccc4nc5ccccc5c(Nc5ccc(S(=O)(=O)Nc6nc(C)cc(C)n6)cc5)c4c3)cc2)n1 | > 100 µM
O=C(OCc1ccccc1)c1ccccc1-c1c2ccc(=O)cc-2oc2cc(OCc3ccccc3)ccc12 | 63.3 µM
NC(N)=N/N=C/c1c(-c2ccc(Cl)cc2)nc2n1CCS2 | 28.8 µM

// TGI lookup, molecule = CC1CC(c2ccc([N+](=O)[O-])cc2)=Nc2ccccc2S1=O (stereo not drawn) , result: 28.1 µM

// TGI lookup, molecule = O=C(CC(C(=O)c1cccs1)c1ccccc1)c1ccccc1O (stereo not drawn) , result: > 100 µM

// TGI lookup, molecule = `CC(=O)Nc1cc(CN2CCCCC2)c(O)c2ncccc12` , result: > 100 µM

----------
System: KM12 colon
Assay: NCI tumour cell line growth inhibition, 48 h
Each record here notes measured GI50.

Compound | GI50
Nc1nc(N)c(-c2ccc(Cl)cc2)c(/C=C/c2ccc([N+](=O)[O-])cc2)n1 | 23.4 µM
NS(=O)(=O)c1ccc(N=Nc2c(=O)[nH]c3ccc4[nH]cccc4c23)cc1 | 0.792 µM
O=C(CN1CCN(c2ccccn2)CC1)Nc1ccc(Cl)cc1C(=O)c1ccccc1Cl | 7.73 µM
NC(N)=NC(N)=NCc1ccco1 | > 1250 µM
CN1C(=O)C(C)(C)Oc2c(-c3cn(C)c(=O)c4[nH]ccc34)cc(S(C)(=O)=O)cc21 | 1.44 µM
O=C1CC2OCC=C3CN4CCC56c7ccccc7N1C5C2C3CC46 (stereo not given) (tested in a mixture with another compound) | > 50 mg/L

// GI50 lookup, compound = `CC(=O)N1c2ccc(-c3ccc(C(=O)O)cc3)cc2[C@H](Nc2ccc(Cl)cc2)C[C@@H]1C` , result: 0.924 µM

// GI50 lookup, compound = CCCCCCCCCCCCCCCC(N)c1ccccc1 (stereo not given) , result: 1.77 µM

// GI50 lookup, compound = `COc1cc[nH]c1/C=C1\C(=O)Nc2ccc([N+](=O)[O-])c(N3CC[C@@H](O)C3)c21` , result: 0.101 µM

// GI50 lookup, compound = `CSc1nc(-c2cccc(NC(=O)CCl)c2)c(C#N)c(=O)n1C` , result: 1.82 µM

// GI50 lookup, compound = C=C1C(OCCO)OC2O[C@]3(C)CCC4[C@H](C)CCC1C24OO3 (stereo not given in full) , result: 6.04 µM

----------
Each record here notes measured TGI.
System: DU-145 prostate
Experiment: NCI tumour cell line growth inhibition, 48 h

// TGI lookup, compound = `O=C1/C(=C/c2cccc(F)c2)CN(C(=O)C(Cl)Cl)C/C1=C\c1cccc(F)c1` , result: 1.36 µM

// TGI lookup, compound = `CCOC(=O)c1c(CN2CCOCC2)n(Cc2ccccc2)c2c1cc(O)c1nc(C)c(C)nc12` , result: > 100 µM

// TGI lookup, compound = `NC(N)=N/N=C/c1ccc(Br)cc1` , result: 22.1 µM

// TGI lookup, compound = Cc1ccc(S(=O)(=O)N/N=C2\CC3C4CCC3C2C4)cc1 (stereo unspecified) , result: > 100 µM

// TGI lookup, compound = `COc1ccc(/C=C/C(=O)/C=C(/C=C/c2ccc(OC)c(OC)c2OC)OB(F)F)c(OC)c1OC` , result: > 100 µM

----------
Test system: NCI-H522 lung
Assay: NCI tumour cell line growth inhibition, 48 h
Assay Readout: TGI

Use the examples below as a reference point.
Compound | TGI
Cc1ccc2c(c1)C/C(=C\c1ccccc1C(=O)O)C2=O | > 100 µM
COc1ccc(-c2cc(-c3ccccc3)nc(N)n2)c(O)c1 | > 100 µM

// TGI lookup, compound = CCCCCCCCCCCCCCCC(N)c1ccccc1 (configuration not stated) , result: 3.21 µM

// TGI lookup, compound = Cc1ccc(C(=O)C(C)N)cc1C (configuration not stated) , result: > 100 µM

// TGI lookup, compound = OCC(O)C(OC1OC(CO)C(O)C(O)C1O)c1nn(-c2ccc(Cl)cc2)c2nc3cc(Cl)ccc3nc12 (configuration not stated) , result: > 100 µM

// TGI lookup, compound = `COc1ccc(-c2cc(=O)c3cccnc3[nH]2)cc1` , result: > 100 µM

// TGI lookup, compound = Cc1ccc(S(=O)(=O)N/N=C2\CC3C4CCC3C2C4)cc1 (configuration not stated) , result: > 100 µM

----------
System: TK-10 renal
Test: NCI tumour cell line growth inhibition, 48 h
Each record here notes measured TGI.

// TGI lookup, compound = O=C1CC2OCC=C3CN4CCC56c7ccccc7N1C5C2C3CC46 (stereo unspecified) (tested in a mixture with another compound) , result: > 50 µg/mL

// TGI lookup, compound = `C[C@]12CC[C@H]3[C@@H](CCC4=CC(=O)CC[C@@]43C)[C@@H]1CC[C@@H]2OC(=O)c1cccc2c(=O)c3ccccc3[nH]c12` , result: > 100 µM

// TGI lookup, compound = `CC(C)Cn1cnc2c(SCc3ccccn3)nc(N)nc21` , result: > 100 µM

----------
Test system: HCT-116 colon
Test: NCI tumour cell line growth inhibition, 48 h
Each record here notes measured TGI.

Use the examples below as a reference point.
Compound | Assay Readout | Recorded Result
COc1ccc([Se]c2ccc(OC)cc2)cc1 | TGI | > 100 µM
C[C@H](CCCOS(C)(=O)=O)[C@H]1CC[C@H]2[C@@H]3CC[C@@H]4C[C@H](OS(C)(=O)=O)CC[C@]4(C)[C@H]3CC[C@]12C | TGI | 1240 µM
CC(=O)Nc1nc(C)c(-c2cc3c(c(S(C)(=O)=O)c2)C(=O)N([C@@H](C)C2CC2)C3)s1 | TGI | > 100 µM

// TGI lookup, compound = `O=C(O)CCCN=C(C(=NCCCC(=O)O)c1ccccc1)c1ccccc1` , result: > 100 µM

// TGI lookup, compound = `CN(C)c1ccc(/C=N/NC(=O)c2cnc3ccccc3c2)cc1` , result: > 100 µM

// TGI lookup, compound = CC1CC2(C)CC(=O)C1C1C(=O)N(CCN3CCOCC3)C(=O)C12 (configuration not stated) , result: > 100 µM

// TGI lookup, compound = COc1ccc(NC(C)=O)cc1N1C(=O)/C(=C\c2cccc(Oc3ccccc3)c2)SC1c1ccccc1 (configuration not stated) , result: 23.8 µM

----------
Test system: COLO 205 colon
Assay: NCI tumour cell line growth inhibition, 48 h
Assay Readout: TGI

// TGI lookup, molecule = `CCN(CC)c1ccc2cc(-c3csc(-c4ccc(N(C)C)cc4)n3)c(=O)oc2c1` , result: > 100 µM

// TGI lookup, molecule = CCN1CCC(O)(/C=C/c2ccc(Cl)cc2)C(C(=O)/C=C/c2ccc(Cl)cc2)C1 (stereo not drawn) , result: > 100 µM

// TGI lookup, molecule = `Cc1c(C=C(C#N)C#N)c(=O)n(C)c(=O)n1C` , result: > 100 µM

// TGI lookup, molecule = `COc1cc[nH]c1/C=C1\C(=O)Nc2ccc([N+](=O)[O-])c(N3CC[C@@H](O)C3)c21` , result: 0.688 µM

// TGI lookup, molecule = N#CC1C(=O)NC(=O)C(C#N)C1c1ccc(Cl)c(Cl)c1 (stereo not drawn) , result: > 100 µM

// TGI lookup, molecule = `S=c1sscc1N1CCSc2ssc(=S)c21` , result: > 100 µM

// TGI lookup, molecule = `O=C(O)CCCN=C(C(=NCCCC(=O)O)c1ccccc1)c1ccccc1` , result: > 100 µM

// TGI lookup, molecule = `COC(=O)[C@]1(C)CC[C@]2(C)CC[C@]3(C)C(=CC(=O)[C@@H]4[C@@]5(C)CCC(=O)NC(C)(C)[C@@H]5CC[C@]43C)[C@@H]2C1` , result: 50.4 µM

// TGI lookup, molecule = `COc1ccc(-c2cc(=O)c3cccnc3[nH]2)cc1` , result: 52.5 µM

// TGI lookup, molecule = `N#CC(CC(=O)O)=C(c1ccccc1)c1ccccc1` , result: > 100 µM

----------
Test system: MOLT-4 leukemia
Test: NCI tumour cell line growth inhibition, 48 h
Where a SMILES comes first, the peptide text is derived from it. [ ]: non-standard residue; d: D form. The star is where a group is joined. ξ: configuration not given here. dIva = CC[C@@](C)(N)C(=O)O; Aib = CC(C)(N)C(=O)O; ξP = O=C(O)C1CCCN1; βAla = NCCC(=O)O; X5 = OCN*
Assay Readout: TGI

Compound | Recorded Result
CCN1C(=O)N(CC)C2C1NN=c1s/c(=C\c3cnc(C)n3C)c(=O)n12 (stereo unspecified) | > 100 µM
CC[C@@](C)(NC(=O)[C@H](C)NC(=O)CCNC(=O)C(C)(C)NC(=O)[C@H](C)NC(=O)[C@@H]1CCCN1C(=O)[C@@](C)(CC)NC(=O)[C@H](Cc1ccccc1)NC(=O)C1CCCN1C(=O)C(C)(C)NC(=O)C1CCCN1C(=O)C(C)(C)NC(C)=O)C(=O)NCCC(=O)N[C@@H](CC(C)C)C(=O)NC(C)(C)C(=O)NCCC(=O)N[C@@H](CC(C)C)C(=O)NC(C)(C)C(=O)NC(C)(C)C(=O)N[C@@H](CC(C)C)C(=O)NCCC(=O)NCO (stereo partly specified) (Ac-[Aib][ξP][Aib][ξP]F[dIva]PA[Aib][βAla]A[dIva][βAla]L[Aib][βAla]L[Aib][Aib]L[βAla]-X5) | 0.645 µM
COc1cc(C2S/C(=C/c3ccccc3)C(=O)N2c2ccccn2)cc(OC)c1OC (stereo unspecified) | > 100 µM

// TGI lookup, compound = `COc1cc(N(CCC#N)CCC#N)ccc1/C(N=Nc1cccc(C)c1)=N\NC(=O)c1ccc(C)cc1` , result: > 100 µM

// TGI lookup, compound = `COC(=O)c1c(OC(C)=O)ccc2c1c1cc3ccccc3c(OC(C)=O)c1n2C` , result: > 100 µM
